# credit: patent US9115101B2

# MEASURED TARGET: RORc ligand binding domain (Homo sapiens)
# Construct: host or cells: E. coli
# Sequence (P51449 269-508 limits assumed, species assumed): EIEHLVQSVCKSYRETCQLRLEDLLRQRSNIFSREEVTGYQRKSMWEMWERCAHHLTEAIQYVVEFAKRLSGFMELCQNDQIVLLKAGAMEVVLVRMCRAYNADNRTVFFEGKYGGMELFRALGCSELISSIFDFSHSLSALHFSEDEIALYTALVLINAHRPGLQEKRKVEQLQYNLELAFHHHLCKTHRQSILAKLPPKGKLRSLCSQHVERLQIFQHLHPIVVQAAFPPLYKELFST
# TEST PROTOCOL: In Vitro RORc Ligand Binding Assay (25-[3H]hydroxycholesterol radioligand filtration)
# TEST PARAMETERS: In Vitro RORc Ligand Binding Assay; Table 4; read-out: RORc IC50
pIC50: −log10 of the molar value.
RECORDED ENDPOINT: pIC50

Example results:
MOLECULE	VALUE OBSERVED
CC(=O)N1CCN(c2ccc(CN3[C@@H](C)CCC(c4ccccc4)S3(=O)=O)c(F)c2)C[C@H]1C(=O)O (stereo partly drawn)	5.87
CS(=O)(=O)N1CCC(Oc2ccc(CN3CCCC(c4ccccc4)S3(=O)=O)c(F)c2)CC1 (single isomer, unassigned) [Example 3]	7.07
CC(=O)N1CCN(c2ccc(CN3C(C)CCCC(c4ccccc4)S3(=O)=O)c(F)c2)CC1 (single isomer, unassigned) [Example 327]	8.52
CC(=O)N1CCN(c2ccc(CN3[C@H](C)CC(c4ccccc4)S3(=O)=O)c(F)c2)CC1 (single isomer, unassigned) [Example 66]	6.51

(a) CC(=O)N1CCN(c2ccc(CN3[C@@H](C)CCC(c4ccc(F)cc4)S3(=O)=O)c(F)c2)CC1 (single isomer, unassigned) [Example 121]
(b) N#CCC(=O)N1CCN(c2ccc(CN3CCCCC(c4ccccc4)S3(=O)=O)cc2)CC1 (single isomer, unassigned) [Example 312]
Enquiry: Please compare: a and b . Report which one has the smaller pIC50 value. Provide the label of your selected option as the answer.
Return: b

----------
# MEASURED TARGET: RORc ligand binding domain (Homo sapiens)
# Construct: host or cells: E. coli
# TEST PROTOCOL: In Vitro RORc Ligand Binding Assay (25-[3H]hydroxycholesterol radioligand filtration)
# TEST PARAMETERS: In Vitro RORc Ligand Binding Assay; Table 4; read-out: RORc IC50
RECORDED ENDPOINT: IC50 (nM)

Example results:
MOLECULE	IC50 [nM]
CC(=O)N1CCN(c2ccc(CN3CC(C)CC(c4ccccc4)S3(=O)=O)c(F)c2)CC1 (single isomer, unassigned) [Example 118]	20
CC(=O)N1CCN(c2ccc(CN3CC(C)CCC(c4ccccc4)S3(=O)=O)c(F)c2)CC1 (single isomer, unassigned) [Example 339]	15
CC(=O)N1CCN(c2ccc(CN3[C@@H](C)CCC(c4ccccc4)S3(=O)=O)c(C)c2)CC1 (single isomer, unassigned) [Example 131]	501
CC(=O)N1CCCN(c2ccc(CN3[C@@H](C)CCC(c4ccccc4)S3(=O)=O)c(F)c2)CC1 (single isomer, unassigned) [Example 80]	14
O=S1(=O)C(c2ccccc2)CCCCN1Cc1ccc(N2CCC(n3cnnc3)CC2)cc1F (single isomer, unassigned) [Example 325]	10
C[C@H]1CCC(c2ccccc2)S(=O)(=O)N1Cc1ccc(N2CCC(c3nnn[nH]3)CC2)cc1F (single isomer, unassigned) [Example 142]	192

(I) C[C@H]1CCC(c2ccccc2)S(=O)(=O)N1Cc1ccc(C(=O)N2CCc3cn[nH]c3C2)cc1 (some centres unmarked) [Example 365]
(II) C[C@H]1CCC(c2ccccc2)S(=O)(=O)N1Cc1ccc(N2CCC(c3ncno3)CC2)cc1F (single isomer, unassigned) [Example 220]
Enquiry: Please compare: I and II . Report which one has the smaller IC50 value. Provide the label of your selected option as the answer.
Return: II
(II: 43 nM, I: 1350 nM)

(a) C[C@H](O)C(=O)N1CCN(c2ccc(CN3[C@@H](C)CCC(c4ccccc4)S3(=O)=O)c(F)c2)CC1 (single isomer, unassigned) [Example 79]
(b) C[C@H]1CCC(c2ccccc2)S(=O)(=O)N1Cc1ccc(C(=O)NCC2CCOC2)cc1 (some centres unmarked) [Example 271]
(c) CC(=O)N1CCN(c2ccc(CN3[C@@H](C)CCC(c4ccccc4)S3(=O)=O)c(F)c2)C[C@@H]1C (some centres unmarked) [Example 238]
Enquiry: Arrange these molecules by their IC50, starting with the largest number. To answer, arrange all of the labels according to the requested order.
Return: b, a, c
